target: T1, human PD-L1 expressed on CHO cells (human, UniProt Q9NZQ7 19-290); experiment: flow cytometry, CHO cells stably expressing PD-L1, Fc fusion at 33.3 nM
T1 construct: whole, on cells; Target on CHO cells stably expressing PD-L1; also called huPD-L1
T1 sequence (Q9NZQ7 19-290): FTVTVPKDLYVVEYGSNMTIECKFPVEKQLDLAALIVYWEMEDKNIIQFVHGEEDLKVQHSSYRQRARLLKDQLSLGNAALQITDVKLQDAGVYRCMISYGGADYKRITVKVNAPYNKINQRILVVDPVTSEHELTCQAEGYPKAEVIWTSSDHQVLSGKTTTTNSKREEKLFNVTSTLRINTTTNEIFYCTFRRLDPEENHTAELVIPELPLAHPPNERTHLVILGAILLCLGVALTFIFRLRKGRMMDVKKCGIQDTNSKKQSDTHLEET
quantity_name: MFI at 33.3 nM (MFI)

>>> numeric_value("CD80 M47V/N48K/K89N IgV-Fc (Fc fusion, not shown: small tags and cut ends; a dimerising Fc or GST) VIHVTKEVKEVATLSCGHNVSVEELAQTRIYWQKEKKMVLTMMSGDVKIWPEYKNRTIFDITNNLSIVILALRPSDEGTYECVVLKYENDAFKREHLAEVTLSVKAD")
2370
>>> numeric_value("CD80 M47V/N48K/V68M IgV-Fc (Fc fusion, not shown: small tags and cut ends; a dimerising Fc or GST) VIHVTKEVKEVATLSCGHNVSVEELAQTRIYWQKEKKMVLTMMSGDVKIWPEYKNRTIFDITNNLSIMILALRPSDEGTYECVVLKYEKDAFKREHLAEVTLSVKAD")
14500
